- TEST SYSTEM: T1, huNav157chimera14+β1-β2-β3 (human, UniProt Q07699 19-218; O60939 30-215; Q9NY72 23-215)
- T1 construct: HEK FlpIn line; also called huNav157 chimera 14-beta1-beta2-beta3; Nav157ch14-β1-β2-β3
- PROCEDURE DETAILS: binding FACS, HEK FlpIn cells
pEC50: −log10 of the molar value.
The reader will find reported pEC50 values listed item by item below.
MEASUREMENT TYPE: pEC50

{"BINDER": "F0103387G05 (parental)-FLAG-HIS6 (VHH) VHH: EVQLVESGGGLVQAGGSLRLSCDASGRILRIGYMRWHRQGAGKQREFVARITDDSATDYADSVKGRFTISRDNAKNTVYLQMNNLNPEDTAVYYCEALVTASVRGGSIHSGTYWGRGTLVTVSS", "REPORTED MEASUREMENT": 8.44}
{"BINDER": "F0103265A11 (parental)-FLAG-HIS6 (VHH, also called F01033265A11) VHH: EVQLVESGGGLVQPGGSLRLSCAASGMLFNANTQGWYRQAPGKQRELVAFIFSGGYTNYVDSVKGRFTISRDNAKRTMYLQMNSLKPEDSAIYYCSLSRYLGQGTLVTVSS", "REPORTED MEASUREMENT": 7.47}
